All values here come from ChEMBL document CHEMBL1156829.

# System: Plasmodium falciparum
# PROTOCOL NOTES: NOVARTIS: Inhibition of Plasmodium falciparum 3D7 (drug-susceptible) proliferation in erythrocyte-based infection assay
# Type: functional, organism-based
# APPLIED CONDITIONS: Plasmodium falciparum, 3D7
The compounds listed here are annotated with their pEC50.
Answer as the number alone; pEC50 is minus log10 of concentration in mol/L.

# annotated cases, reported pEC50 shown
compound=COc1cc(C=C(C#N)c2nc3ccccc3[nH]2)ccc1OCc1ccccc1 tested_target="Plasmodium falciparum" measured=6.12
compound=CC[n+]1c(C)cc2c(sc3ccccc32)c1C tested_target="Plasmodium falciparum" measured=5.98
compound=COc1ccc(CNCc2cc(-c3ccnc4cc(Cl)ccc34)ccc2O)c(OC)c1 tested_target="Plasmodium falciparum" measured=6.02

Could you tell me which pEC50 is on file for `Cc1cccc2c1[nH]c1nc(SCC(C)C)nnc12` ? 5.83

CCCCCN(C(=O)c1cccc(C(F)(F)F)c1)C(CC)c1nc2ccccc2c(=O)n1-c1ccccc1OC (stereo unspecified) ? 6.14
